Reported apparent KD of MS2 coat protein is given for each of the following sequences.
# System: MS2 coat protein
# PROCEDURE TEXT: apparent KD of MS2 coat protein; designed switch direction (-1 OFF switch, 1 ON switch): 1; higher = weaker reporter binding
# EXPERIMENTAL CONDITIONS: input ligand: none

{"SEQ TEXT": "AUUAUUUAUGCAGGAUAUGAUUAACAUGAGGAUCACCCAUGUGGUGUUGUGAGUAAGGAGAGUGAUCAGAAGGGCAUUUUUUUA [JMF's solution 56] (Eterna round: R96, puzzle: Same State NG 2)", "TARGET ENTITY": "MS2 coat protein", "apparent KD of MS2 coat protein (nM)": 302}
{"SEQ TEXT": "CCGUAGAUGGAAGGAUAUGGAGCCUUAUUGGCUCCAGAAGGUUCAAAACAUGAGGAUCACCCAUGUACGGCGGUCAAUAGACCG [Eli NG1ss - 82] (Eterna round: R96, puzzle: Same State NG 1)", "TARGET ENTITY": "MS2 coat protein", "apparent KD of MS2 coat protein (nM)": 245}
{"SEQ TEXT": "AAAUAAAACACAGGAUAUGCAACCAAUACGGCGGCAGAAGGGUGAGACAUGAGGAUCACCCAUGUACACGUCCCACAGACGUGC [Onlaa] (Eterna round: R96, puzzle: Same State NG 1)", "TARGET ENTITY": "MS2 coat protein", "apparent KD of MS2 coat protein (nM)": 175}
{"SEQ TEXT": "UUAGUCAUGUAAGGAUAUGCAGCCGAAACGGCUGCAGAAGGUACUAUAAUUACAUGAGGAUCACCCAUGUUAUAAAAUUUAUAU [Mat - Same State NG 1 - JL mod - D62] (Eterna round: R96, puzzle: Same State NG 1)", "TARGET ENTITY": "MS2 coat protein", "apparent KD of MS2 coat protein (nM)": 41.2}
{"SEQ TEXT": "GCCGUAAACAUGAGGAUCACCCAUGUAAACGCGAGAGUGGAUGAGGAUAUCGAUGGGUUUCCCGUCGAGAAGGCGUGGGUCGGC [JL SSNG3 3.99] (Eterna round: R96, puzzle: Same State NG 3)", "TARGET ENTITY": "MS2 coat protein", "apparent KD of MS2 coat protein (nM)": 46.1}

src = the supplement of paper PMC9170038
